pIC50: −log10 of the molar value.
Across several publications, the following pIC50 results were reported for human ACC2 (Homo sapiens (Human), UniProt O00763).
READOUT KIND: pIC50

Past entries and their recorded results:
Given the entry CCNC(=O)C(C)c1ccc(O[C@@H]2CCN(c3ccnc(N4CCOCC4)n3)C2)cc1 (stereo partly shown) , report its measured pIC50.
6.09

Given the entry C[C@H](NC(=O)N1CCC1)c1ccc(OC2CCN(c3ccc(OCC4CC4(F)F)cn3)C2)cc1 (stereo partly shown) , report its measured pIC50.
6.70

Given the entry CC(=O)NC(C)Cc1ccc(C2CN(c3ccc(OCC4CC4)cc3)C2)cc1 (stereo not shown) , report its measured pIC50.
6.20

Given the entry Cc1[nH]ncc1C(=O)N[C@@H](C)c1ccc(OC2CCN(c3ccnc(OCC(F)F)c3)C2)cc1 (stereo partly shown) , report its measured pIC50.
6.55

1 = CCOc1ccc(N2CCC(Oc3ccc([C@H](C)NC(C)=O)cc3)C2)c(F)c1 (stereo partly shown)
2 = C[C@H](NC(=O)C1(O)CC1)c1ccc(CN2Cc3ccc(OCC4CC4)cc3C(F)C2)cc1 (stereo partly shown)
Of the pair 1 and 2 , name the member with the lesser recorded pIC50. Write the label of whichever entry you select.
1
(1: 6.62, 2: 6.99)

A = C[C@H](NC(=O)N1CCOCC1)c1ccc(OC2CCN(c3ccc(OCC4CC4)cc3)C2)cc1 (stereo partly shown)
B = COC(=O)NC(C)Cc1ccc(C#Cc2cnc(NCc3ccncc3)nc2)cc1 (stereo not shown)
Of the pair A and B , name the member with the lesser recorded pIC50. Write the label of whichever entry you select.
B
(B: 5.47, A: 6.70)

a = CC(=O)N[C@@H](C)c1ccc(OC2CCN(c3ccc(OC4CC4)cc3F)C2)cc1 (stereo partly shown)
b = CC(=O)NC(C)Cc1ccc(C#Cc2ccnc(OCc3ccccc3)c2)cc1 (stereo not shown)
c = COc1c(OCC2CCC2)ccc2c1CCN(Cc1ccc([C@H](C)NC(C)=O)cc1)C2
Falling order of pIC50, please. Please, when replying, give the labels in the order that was requested.
c, a, b

I = CC(=O)N[C@@H](C)c1ccc(O[C@@H]2CCN(c3cc(N4CCCC4)ncc3F)C2)cc1
II = C[C@H](NC(=O)C(F)(F)F)c1ccc(OC2CCN(c3ccnc(OCC(F)F)c3)C2)cc1 (stereo partly shown)
Of the pair I and II , name the member with the lesser recorded pIC50. Write the label of whichever entry you select.
I
(I: 6.78, II: 7.11)

I = CCNC(=O)C(C)c1ccc(C2CCN(c3ccc(OC4CCC4)cc3OC)CC2)cc1 (stereo not shown)
II = C[C@H](NC(=O)C1(C#N)CC1)c1ccc(OC2CCN(c3ccnc(OCC4CC4)c3)C2)cc1 (stereo partly shown)
From the recorded data, which exceeds the other in pIC50: I or II ? Write the label of whichever entry you select.
II
(II: 7.07, I: 6.60)

----------
Across several publications, the following pIC50 results were reported for UniProt:O00763.
pIC50: −log10 of the molar value.
READOUT KIND: pIC50

A = CC(=O)NC(C)Cc1ccc(C#Cc2ccc(C(C)(C)C)cc2)cc1 (stereo not shown)
B = Cc1cc(C)c(-c2ccc(Cl)cc2)cc1C1=C(O)C2(CCOCC2)OC1=O
C = CC(=O)N[C@@H](C)c1ccc(O[C@@H]2CCN(c3ccnc(OCC(C)(F)F)c3Cl)C2)cc1
# rank by pIC50, ascending (min first) Please, when replying, give the labels in the order that was requested.
B, A, C
